List of TGI values.
- System: UACC-257 melanoma
- assayInfo: NCI tumour cell line growth inhibition, 48 h

Use the examples below as a reference point.
• CCC1C(C#N)=C(O)NC(O)=C1C#N = > 100 µM
• COC(=O)[C@H](Cc1ccccc1)NC(=O)N(CCC#N)CCCCN(CCC#N)C(=O)N[C@@H](Cc1ccccc1)C(=O)OC = > 100 µM
• Cc1cc(-c2nnc(/C=C/c3ccc4c(c3)OCO4)o2)n[nH]1 = > 50 µM

Next:
Which TGI is reported for this compound? Cc1cccc(C)c1NC(=O)CCC/C(CC(=O)c1ccc(F)cc1)=N\NC(=O)C(=O)NN
> 100 µM

----------
- Tested on: LOX IMVI melanoma
- assayInfo: NCI tumour cell line growth inhibition, 48 h
*1 amine or outer side, *2 acyl side, *3 side chain or, on linkers, in order; H or OH if unused. Where a SMILES comes first, the peptide text is derived from it. [ ]: non-standard residue; d: D form. The star is where a group is joined. ξ: configuration not given here. NMeY = CN[C@@H](Cc1ccc(O)cc1)C(=O)O; Ethylenediamine = C(CN[*:2])N[*:1]; ξNMeL = CNC(CC(C)C)C(=O)O; Cbz = O=C(OCc1ccccc1)*; Lac = C[C@H](O)C(=O)O; ξA = CC(N)C(=O)O
In this section, each of the compounds is paired with its reported TGI.

Example entries and their recorded answers appear below.
* COc1ccc(C[C@@H](C(=O)NCCNC(=O)C(CC(C)C)N(C)C(=O)[C@@H]2CCCN2C(=O)[C@H](C)O)N(C)C(=O)[C@@H]2CCCN2C(=O)[C@H](CC(C)C)NC(=O)C(C)NC(=O)OCc2ccccc2)cc1 (stereo not given in full) (Cbz-[ξA]LP[NMeY](Me)-{Ethylenediamine-ξNMeL-Pro-Lac}) | > 100 µM
* Cc1cc(S(=O)(=O)Nc2nnc3c4ccccc4cnn23)c(S)cc1Cl | > 100 µM
* C/C=C/C/C=C/[C@H](C)C[C@H](O)[C@@H]1C[C@@H]2O[C@H]2/C=C/[C@@H]2OC(C)(C)O[C@H]2/C=C/C[C@H](C)CC(=O)O1 | > 100 µM

Entry under review: NC1C=NNC1=O (stereo not given) . Reported TGI?
> 100 µM

Could you tell me which TGI is on file for C=CC(COC(=O)C(C)(C)OC(C)=O)c1ccc(OC(=O)C(C)C)c(OC)c1 (stereo not given) ?
> 33.3 µM

----------
- Test system: NCI-H460 lung
- assayInfo: NCI tumour cell line growth inhibition, 48 h
measureName: TGI

Consider the worked cases shown below.
* O=C(CSCC(=O)N/N=C/c1ccccc1O)N/N=C\c1ccccc1O | > 100 µM
* CN(C)C1(N(C)C)Oc2c(c(=O)n(C)c(=O)n2C)C(c2ccc(C(F)(F)F)cc2)C1(F)F (stereo unspecified) | > 100 µM
* CC(C)(C)OP(=O)(OC(C)(C)C)C(O)c1ccc(/C=C(\C#N)C(N)=O)cc1 (stereo unspecified) | > 100 µM

Can you share its TGI? I mean this compound: C[C@@H]1[C@H](O)CC2=C(CC[C@@H](O)C2(C)C)[C@@]1(CO)CCc1ccoc1
> 50 µM

Requested field: TGI. Item: O=c1cc(-c2ccccc2)[nH]c2ccc(S)cc12
> 100 µM

Consider the compound shown here: CC(C)(C)C1CCC2c3c([nH]c4ncccc34)C3C(=O)N(c4ccccc4)C(=O)C3C2C1 (stereo unspecified) What is its recorded TGI?
> 100 µM

----------
- Test system: CAKI-1 renal
- assayInfo: NCI tumour cell line growth inhibition, 48 h
measureName: TGI

Which measured TGI value corresponds to O=C(c1cccc2ccccc12)C1S(=O)(=O)OCCOS1(=O)=O ?
> 100 µM

Item Clc1cc2ccccc2c2ccccc12 has what recorded TGI?
> 100 µM

I'd like to know its TGI. The compound in question is COc1ccc2c(c1)CC1COc3cc(OC)ccc3C1O2 (stereo not drawn)
> 100 µM

Please give the measured TGI for this compound: OB(O)c1ccccc1C#Cc1ccccc1B(O)O
22.1 µM

I would be grateful if you could share the reported TGI for O=[N+]([O-])c1cccc(-c2nc(-c3ccc(Cl)cc3Cl)cn2-c2ccccc2)c1 .
1.21 µM

What does the record list as TGI for CN(CCO)Cc1ncccc1O ?
> 100 µM

Quick one: TGI of C1OC1CN1CCN(CC2CO2)CC1 (stereo not drawn) ?
> 100 µM

Report TGI for CC(=O)OC1OC(c2ccoc2)C[C@@]12C1CCC3O[C@]3(C)[C@]1(C)[C@H](OC(C)=O)[C@H](OC(C)=O)[C@H]2C (stereo partly drawn) please.
> 37.5 µM

Need TGI, item O=C(O)C(O)(c1ccc(-c2ccccc2)cc1)c1ccc(-c2ccccc2)cc1
> 100 µM

----------
- System: NCI-H460 lung
- assayInfo: NCI tumour cell line growth inhibition, 48 h
*1 amine or outer side, *2 acyl side, *3 side chain or, on linkers, in order; H or OH if unused. Where a SMILES comes first, the peptide text is derived from it. [ ]: non-standard residue; d: D form. The star is where a group is joined. ξ: configuration not given here. NMeY = CN[C@@H](Cc1ccc(O)cc1)C(=O)O; Ethylenediamine = C(CN[*:2])N[*:1]; ξNMeL = CNC(CC(C)C)C(=O)O; Cbz = O=C(OCc1ccccc1)*; Lac = C[C@H](O)C(=O)O; ξA = CC(N)C(=O)O
# TGI annotations

A selection of reference data follows.
* COc1ccc(C[C@@H](C(=O)NCCNC(=O)C(CC(C)C)N(C)C(=O)[C@@H]2CCCN2C(=O)[C@H](C)O)N(C)C(=O)[C@@H]2CCCN2C(=O)[C@H](CC(C)C)NC(=O)C(C)NC(=O)OCc2ccccc2)cc1 (some centres undefined) (Cbz-[ξA]LP[NMeY](Me)-{Ethylenediamine-ξNMeL-Pro-Lac}) | > 100 µM
* S=c1o[nH]c(-c2ccccc2)c1C=Nc1ccccc1 | > 100 µM
* O=C1c2c(ccc3c2CCC3)CC1Cc1ccc2c(c1)CCC2 (centres undefined) | > 100 µM
* Clc1cc2ccccc2c2ccccc12 | > 100 µM
* O=C1CNC(=O)/C(=C/c2c[nH]c3ccccc23)N1 | > 100 µM

Quick check: TGI on NCI-H460 lung, item COC1=N[C@H](C(C)C)C(OC)=N[C@H]1Cc1ccc(C[C@@H]2N=C(OC)[C@@H](C(C)C)N=C2OC)s1 ?
> 100 µM

API: value(readout=TGI, system=NCI-H460 lung) for record COC1CC(OC2CCC3(C)C(=CCC4C3C(OC(C)=O)C(OC(=O)CC(C)C)C3(C)C(C(C)=O)CCC43O)C2)OC(C)C1OC1CC(OC)C(OC2CC(OC)C(OC3OC(C)C(O)C(OC)C3O)C(C)O2)C(C)O1 (centres undefined)
> 100 µM

Look up TGI with NCI-H460 lung for this molecule: Cc1ccc(/C=C/C(=N/NC(=O)N/N=C(/C=C/c2ccc(C)cc2)C(C)C)C(C)C)cc1
> 10 µM

API: value(readout= TGI, system= NCI-H460 lung, query= COc1ccc(C(C)c2cc(OC)c(OC)c(OC)c2)cc1 (centres undefined) )
> 50 µM

----------
- Tested on: HCT-15 colon
- assayInfo: NCI tumour cell line growth inhibition, 48 h
# TGI values compiled below

- Cc1c(O)c(OC2OC(CO)C(O)C(O)C2O)cc2c1C=C[C@@H]1[C@@]2(C)C(=O)C[C@]2(C)[C@@H]([C@@](C)(O)C(O)/C=C/C(C)(C)O)[C@H](O)C[C@@]12C (some centres undefined): > 100 µM
- O=c1[nH]c2cc([N+](=O)[O-])ccc2nc1/C(=N/Nc1ccccc1)C(O)c1ccco1 (centres undefined): > 100 µM
- O=C(O)c1cc2ccccc2c2c3c(ccc12)OCO3: > 1000 µM

// returns reported TGI for input COc1ccc(C(=O)O[C@H]2CC[C@@]3(C)[C@@H]4CC[C@H]5[C@]6(O)C[C@H](O)[C@@]7(O)[C@@H](CN8C[C@@H](C)CC[C@H]8[C@@]7(C)O)[C@]6(O)C[C@@]53OC24O)cc1OC
> 100 µM

Item COC(=O)CCC1=NCC(C)(C)O1 has what recorded TGI?
> 10 µM

----------
This listing pairs molecules with measured TGI.
- Tested on: U251 CNS
- assayInfo: NCI tumour cell line growth inhibition, 48 h
Write it as a number; the unit µM goes unstated.

Form field: reported TGI of O=C(Nn1c(-c2cccs2)nc2ccc(I)cc2c1=O)c1ccccc1
73.1

Report TGI for OC(c1ccc(Cl)cc1)(c1ccc(Cl)cc1)c1cncnc1 please.
37.8

Need TGI, item N#Cc1ccc(-c2c(-c3ncn[nH]3)sc(N3CCOCC3)c2C#N)c(F)c1
21.7

# input molecule: O=C(/C=C/c1ccc(OCc2ccccc2)cc1)NCc1ccc(C(=O)NCCc2c[nH]c3ccccc23)cc1 ; wanted: its TGI
20.5

Bench note: what TGI did O=S(=O)(NCCNc1nccc(-c2c(-c3ccc(F)c(O)c3)nc3sccn23)n1)c1ccc(Cl)cc1 show?
16

Origin of values: PubChem BioAssay (NCI)
